TARGET: OsWRKY34 (Oryza sativa, UniProt Q0JBA9 1-250)
Sequence (Q0JBA9 entry or part of it): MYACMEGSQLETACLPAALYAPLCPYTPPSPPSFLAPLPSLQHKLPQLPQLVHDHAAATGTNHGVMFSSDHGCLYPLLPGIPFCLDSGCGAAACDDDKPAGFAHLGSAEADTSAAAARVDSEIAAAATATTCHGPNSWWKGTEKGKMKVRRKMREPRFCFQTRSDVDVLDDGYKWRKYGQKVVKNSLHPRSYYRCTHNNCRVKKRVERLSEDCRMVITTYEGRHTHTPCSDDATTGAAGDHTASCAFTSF
TEST NAME: protein-binding microarray (RPBM); PBS, 2% BSA, 51.3 ng/ul salmon testes DNA, 50 uM zinc acetate, 200 nM TF, 25 C, 1 h; high values mean tight binding
CONDITION SUMMARY: protein: recombinant; tags: N-terminal polyhistidine and DsRed monomer fusion (pET32a); label: CyDye5-dUTP incorporated in the synthesized complementary strand; 3' TTTTT single-stranded linker to array surface; dsDNA, one strand shown
Whole data set: some 68,000 sequences, median “fluorescence intensity (a.u.)” near 9,100, cut for the highest 2% near 16,000. Only a selection was taken, and the highest values are over-represented in it overall.
METRIC: binding signal

Study these solved cases before continuing.
1) ACTTCTTGCTGATCTTCTTGGACTGCTTTTGCACCTTCTTCGGAGTCACCTAGTGCAG | 9360 fluorescence intensity (a.u.)
2) TGGTCTGGCAGTTTTTGAGACGGGGAGTTGACTCAGATATCGGAGTCACCTAGTGCAG | 9260 fluorescence intensity (a.u.)
3) TCGTGCGTGCGTGAGGGAGGTCGTGGTGGTGGTGGTGGTGCGGAGTCACCTAGTGCAG | 9020 fluorescence intensity (a.u.)
4) GTTTCCATTTATCTGTTCGCAGTCAGTTCCAAGAAGTACCCGGAGTCACCTAGTGCAG | 8340 fluorescence intensity (a.u.)
5) GATCGAATCGAATAGAGTACATTCTCTACAGGGGAGGGGACGGAGTCACCTAGTGCAG | 9760 fluorescence intensity (a.u.)

Prompt line: Look at this sequence and give its reported binding signal. TCTGCCTTGAAGTGGTACCGTGGGTGGGAGGGTAGTTATGCGGAGTCACCTAGTGCAG
Response line: 11500 fluorescence intensity (a.u.)

Prompt line: // query: GACAACCTGGAGCCCGACGACGACGAGGGGATGGGGAGGGCGGAGTCACCTAGTGCAG
Response line: 8810 fluorescence intensity (a.u.)

Prompt line: // query: TCGACAATGTCACTCCATCATATCATGGCCAAAATATAACCGGAGTCACCTAGTGCAG
Response line: 8140 fluorescence intensity (a.u.)

Prompt line: // query: TCCGTTCCATCGTAATCCTTCTCCGATCCGAATTTGCTTCCGGAGTCACCTAGTGCAG
Response line: 9120 fluorescence intensity (a.u.)
